method.summary: Caco-2 monolayer transport (bioavailability) study, AB and BA directions
Assay type: in vitro ADME, Homo sapiens
protocol.conditions: human, Caco-2; apical to basolateral, S2 (22 mg/mL GSE)
This listing pairs molecules with measured Papp A→B at 180 min, 22 mg/mL.
Kindly answer with a numeric value in ×10⁻⁶ cm/s, unit omitted.

Sample answers from the record:
molecule	Papp A→B at 180 min, 22 mg/mL [×10⁻⁶ cm/s]
COc1cc(-c2[o+]c3cc(O)cc(O)c3cc2O[C@@H]2O[C@H](CO)[C@@H](O)[C@H](O)[C@H]2O)cc(OC)c1O [M3G, malvidin-3-O-glucoside]	15
O=C(O)c1cc(O)c(O)c(O)c1	1800
O=C(/C=C/c1ccc(O)c(O)c1)O[C@@H](C(=O)O)[C@@H](O)C(=O)O	51

Now, please, on to the next molecule.
Recorded Papp A→B at 180 min, 22 mg/mL (molecule O=c1c(O[C@@H]2O[C@H](CO)[C@@H](O)[C@H](O)[C@H]2O)c(-c2ccc(O)cc2)oc2cc(O)cc(O)c12 [K3G, kaempferol-3-glucoside] ): 730
